Data credit: the supplement of paper PMC10681739

Molecular target: ETS1 (UniProt P14921)
Sequence: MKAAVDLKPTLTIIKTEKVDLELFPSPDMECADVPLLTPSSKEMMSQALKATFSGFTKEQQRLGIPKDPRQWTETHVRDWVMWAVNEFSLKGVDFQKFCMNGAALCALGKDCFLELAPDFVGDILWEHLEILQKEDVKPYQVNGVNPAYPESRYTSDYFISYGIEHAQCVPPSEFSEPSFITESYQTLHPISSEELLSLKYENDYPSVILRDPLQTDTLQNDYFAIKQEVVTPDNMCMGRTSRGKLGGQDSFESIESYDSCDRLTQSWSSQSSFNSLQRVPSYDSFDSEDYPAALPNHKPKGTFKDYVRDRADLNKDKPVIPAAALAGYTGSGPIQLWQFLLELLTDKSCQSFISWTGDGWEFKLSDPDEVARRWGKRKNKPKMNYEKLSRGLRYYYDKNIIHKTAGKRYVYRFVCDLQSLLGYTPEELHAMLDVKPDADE
Experiment: ETS1 binding intensity (PBM fluorescence) in presence of RUNX1, normalised to ETS1-only experiment (arbitrary fluorescence units); higher = stronger binding
Details: ETS1 concentration 1 nM; RUNX1 concentration 25 nM
Assay readout: ETS1 binding intensity
Just the number.

# Macromolecule sequence, ETS1 binding intensity
data = [
    ("TGTCATCCCGGAAACTGATAACAAGACCGCGAGTCA", 2530),
    ("ACCAGAACAGGAAATGTTAGTGGTTGAGTTAACGGT", 5800),
    ("AGGCTTCCGGCCACGCCCCCTTCCCGCGGTTGCTAG", 1140),
    ("GGCTGTGCTTCAGGATGTGGTAATGCTTGGGAGGCG", 4180),
    ("TCATATCCGGCAGGAATGGGTTTTGTGGCTTTGTGC", 1400),
]

In: For GACTTGGGGGAAGTGGCTTGGTTTGCGTGGTTTCTC , write its ETS1 binding intensity.
Out: 546

In: Determine its reported ETS1 binding intensity: TCTTCAGGCGTCTTTCCGGTGGTGGTCGTTTTTGCT
Out: 1330

In: Write down ETS1 binding intensity measured for item GTGAGCCTGTAAAGGAAATTGAGGTTATGTGGCTCA
Out: 1770

In: Supply measured ETS1 binding intensity of CCTCTGTTCTTCACAGGAAGCCACAGGCCTCCCCTG in your reply.
Out: 3160

In: Please give the documented ETS1 binding intensity of CGAGATCCTGGCCACGGATGCGGTGGCCGCGCCTCT
Out: 660

In: Identify measured ETS1 binding intensity associated with CTTCACTATGCATCCTGTACTGCAACCACACCAAAC
Out: 793

In: Identify ETS1 binding intensity associated with the sequence TGAAACCCAGCAGGATGTGGGTTAACGGCAGGGGAG
Out: 6440

----------
Biological target: ETS1 (UniProt P14921)
Sequence: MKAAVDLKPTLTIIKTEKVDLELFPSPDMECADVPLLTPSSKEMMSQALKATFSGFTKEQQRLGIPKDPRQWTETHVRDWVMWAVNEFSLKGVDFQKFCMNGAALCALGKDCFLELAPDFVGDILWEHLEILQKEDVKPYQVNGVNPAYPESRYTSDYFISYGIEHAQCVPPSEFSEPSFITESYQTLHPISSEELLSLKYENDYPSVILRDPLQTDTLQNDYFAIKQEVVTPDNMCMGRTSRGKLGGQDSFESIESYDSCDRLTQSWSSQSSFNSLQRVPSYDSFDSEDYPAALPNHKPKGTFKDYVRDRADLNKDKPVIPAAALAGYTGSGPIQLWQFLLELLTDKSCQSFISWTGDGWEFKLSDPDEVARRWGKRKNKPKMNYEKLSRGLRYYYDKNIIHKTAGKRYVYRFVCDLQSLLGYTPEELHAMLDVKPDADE
Test: ETS1 binding intensity (PBM fluorescence), ETS1 alone (arbitrary fluorescence units); higher = stronger binding
Settings: ETS1 concentration 1 nM; RUNX1 concentration 0 nM
sequences and their reported ETS1 binding intensity

For orientation, consider the following solved cases.
# Macromolecule sequence, Obs value
records = [
    ("CTGCTTCCGGCCCCGGGGTTCGCTACCCCACAATCC", 1210),
    ("ATACAGACACAGGAAGTTGTGGGGAGTGCAAAAGCC", 5090),
    ("AGGACCGGAAGTGCCCGAGGGCGGCCGCAGAACGGT", 8870),
]

Proceeding to the next sequence to report its ETS1 binding intensity.
In: Identify measured ETS1 binding intensity corresponding to GCAATGCCGCTACCGGAAGTGCGGGTCGCGCTCCCG
Out: 26000

----------
Biological target: RUNX1 (UniProt Q01196)
Sequence (Q01196 whole entry): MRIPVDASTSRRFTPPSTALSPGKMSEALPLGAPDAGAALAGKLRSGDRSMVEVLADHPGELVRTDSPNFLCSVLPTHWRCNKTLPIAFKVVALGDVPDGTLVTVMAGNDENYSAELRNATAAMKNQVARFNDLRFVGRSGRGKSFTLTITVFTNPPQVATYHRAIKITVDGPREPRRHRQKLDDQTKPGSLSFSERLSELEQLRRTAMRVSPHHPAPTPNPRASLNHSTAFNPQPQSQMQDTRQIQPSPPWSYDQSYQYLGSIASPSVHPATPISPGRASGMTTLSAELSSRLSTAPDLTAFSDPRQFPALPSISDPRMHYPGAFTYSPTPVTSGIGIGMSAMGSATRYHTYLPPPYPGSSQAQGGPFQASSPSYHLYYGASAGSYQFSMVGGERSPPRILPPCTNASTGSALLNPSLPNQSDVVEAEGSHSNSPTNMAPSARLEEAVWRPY
Experiment: RUNX1 binding intensity (PBM fluorescence) in presence of ETS1, normalised to RUNX1-only experiment (arbitrary fluorescence units); higher = stronger binding
Conditions: RUNX1 concentration 2 nM; ETS1 concentration 25 nM
Assay readout: RUNX1 binding intensity
Please give only the number in your answer, with no unit.

For orientation, consider the following solved cases.
# Macromolecule sequence, Tested on, RUNX1 binding intensity
rows = [
    ("AAGAGGAAATAAATACCAGAGTGAACCCACAAACCT", "RUNX1 (UniProt Q01196)", 903),
    ("ACCTGTAGGCGGAAGTCTGTGGCTTTATTTACACAG", "RUNX1 (UniProt Q01196)", 1730),
    ("CTCCCACATCCGAAGCGGCGCAACCCACAACAGCCT", "RUNX1 (UniProt Q01196)", 1620),
    ("AGTCTAACCAACAAAGGATGTGGTAGGTAAAAGGTT", "RUNX1 (UniProt Q01196)", 959),
    ("CCTTGCTACAGGATGTTTTGACCACGAGCCCAGGAG", "RUNX1 (UniProt Q01196)", 1390),
]

Below: the item to evaluate.
In: Using known records, supply RUNX1 binding intensity for TATTCAGGCTTCCGGGTGATGTTTGTGGCCACCCGG
Out: 1510

----------
Biological target: ETS1 (UniProt P14921)
Sequence: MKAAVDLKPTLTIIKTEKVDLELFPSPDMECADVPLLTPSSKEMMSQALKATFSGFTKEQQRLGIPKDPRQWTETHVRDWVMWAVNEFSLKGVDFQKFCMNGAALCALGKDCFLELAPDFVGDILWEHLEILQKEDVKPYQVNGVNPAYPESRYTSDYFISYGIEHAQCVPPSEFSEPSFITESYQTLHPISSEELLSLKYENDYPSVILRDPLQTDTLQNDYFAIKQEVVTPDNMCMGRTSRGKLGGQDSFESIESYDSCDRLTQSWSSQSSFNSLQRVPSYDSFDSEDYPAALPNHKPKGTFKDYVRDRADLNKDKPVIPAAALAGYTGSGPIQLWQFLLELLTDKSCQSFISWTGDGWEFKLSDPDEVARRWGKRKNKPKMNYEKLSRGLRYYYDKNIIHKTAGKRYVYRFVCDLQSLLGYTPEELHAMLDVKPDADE
Assay: ETS1 binding intensity (PBM fluorescence) in presence of RUNX1, normalised to ETS1-only experiment (arbitrary fluorescence units); higher = stronger binding
Conditions: ETS1 concentration 1 nM; RUNX1 concentration 25 nM
Assay readout: ETS1 binding intensity
// response body must contain only the number

# Macromolecule sequence, Tested on, Assay readout, Obs value
records = [
    ("AGCAACAACAAAGGAAGTGGCGGCCGCAGGGGGAGG", "ETS1 (UniProt P14921)", "ETS1 binding intensity", 2160),
]

In: Using the record for GGGCCCTTCCTGTGGCGCCTGCCGAGCTGTGGTTGG , state its measured ETS1 binding intensity.
Out: 496

In: Item TTTCACTTCCGGCATGTTTTTCACCCACAGGGATAT : provide ETS1 binding intensity
Out: 3980

In: Tell me measured ETS1 binding intensity for CTGGCCAGCTCCCACGGATGTGGTAGGCAGGCAGCA please.
Out: 1430

In: Report ETS1 binding intensity for GGCTTTCCGTTCAAGGATCTTTTTGCGGTCTTTGTC
Out: 777

In: Recall and state the measured ETS1 binding intensity for GGCGGCTTCCGGGATCTGCCTGGCGGTTGCTTTGTC .
Out: 525

In: Fill in reported ETS1 binding intensity for this entry: ACAGACCAGGGGATTTCCTGTGGGTGGAGTCCTCAG
Out: 771

In: Supply reported ETS1 binding intensity belonging to this sequence: CACCTCACAGCCCGGATACAAACCGCCTACCCGCCC
Out: 980

In: Retrieve ETS1 binding intensity measured for CCTTGCTGCAGGATGCTCTAACCACAAGCCCAGGAG and print it.
Out: 2720

In: Return ETS1 binding intensity for the following sequence: CTCACAGAAGAGGCAGGAAGTGGTTTGAGTTATCAT
Out: 13700

In: Specify ETS1 binding intensity for TCACCCTCTCACTTCCTGCGGGTCCCAGGCTCAGGC and stop.
Out: 790
